System: Fathead minnow (Pimephales promelas) acute toxicity, lethality
Assay: DSSTox (EPAFHM) EPA Fathead Minnow Acute Toxicity
reported.property: Potency

[[record]]
compound = "OCCN(CCO)c1ccccc1"
result = "4060 µM"

[[record]]
compound = "CCCCCCOc1ccc(N)cc1"
result = "15.6 µM"

[[record]]
compound = "CCCCCCCCCCCCN"
result = "0.556 µM"

[[record]]
compound = "CC(C)(O)C(F)(F)C(F)F"
result = "3640 µM"

[[record]]
compound = "CC(C)C(C(=O)OC(C#N)c1cccc(Oc2ccccc2)c1)c1ccc(Cl)cc1 (stereo unspecified)"
result = "0.0121 µM"

[[record]]
compound = "CCCCN(C=O)CCCC"
result = "568 µM"

[[record]]
compound = "CCCCCCBr"
result = "20.9 µM"

[[record]]
compound = "O=C(c1ccccc1)c1ccccc1"
result = "80.7 µM"

[[record]]
compound = "CCOP(=O)(Cc1ccccc1)OCC"
result = "1470 µM"

[[record]]
compound = "C=CCC#N"
result = "2710 µM"

[[record]]
compound = "CCCCOC(=O)CCCCC(=O)OCCCC"
result = "14.1 µM"

[[record]]
compound = "CS(C)=O"
result = "435000 µM"

[[record]]
compound = "Cc1cc(Cl)nc(N)n1"
result = "982 µM"

[[record]]
compound = "C=Cc1ccc(C(C)(C)C)cc1"
result = "3.06 µM"

[[record]]
compound = "Oc1ccc(Oc2ccccc2)cc1"
result = "26.6 µM"

[[record]]
compound = "Oc1c(Cl)cc(Cl)c(Cl)c1Cl"
result = "4.44 µM"


Source of measurements: PubChem BioAssay AID1188
